B1: KCNA3 (parent)
chain: GERVVINISGLRFETQLKTLCQFP

# Variants of: B1
# test.method.notes: protein stability index of a GFP-peptide fusion (GPS, HEK-293T) (PSI 1-6); higher = more stable;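 further: lentivirally expressed fusions sorted by FACS into six bins by GFP to DsRed ratio, PSI derived from sequencing read proportions per bin multiplied by bin number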
# recorded.conditions: c terminus: a fixed tail appended
Label class 0 if protein stability index falls below 3; label class 1 in every other case.

Kindly determine if protein stability index recorded for R12L is above or exactly 3.
class 1

Kindly determine if protein stability index recorded for G1L is above or exactly 3.
class 0

Kindly determine if protein stability index recorded for V5H is above or exactly 3.
class 0

Kindly determine if protein stability index recorded for R12Y is above or exactly 3.
class 0

Kindly determine if protein stability index recorded for V5Y is above or exactly 3.
class 0
